SYSTEM: zebrafish monoamine oxidase (zMAO) (Danio rerio)
METHOD DESCRIPTION: Steady-state kinetics of zMAO-catalyzed amine substrate oxidation
Format: biochemical
STATED CONDITIONS: zMAO, 25 °C, pH 7.4
OBSERVED PROPERTY: kcat (s⁻¹)
Your answer is read as s⁻¹, so omit the unit and give the number.

stdin: Consider the molecule shown here: NCCC(=O)c1ccccc1N [Kynuramine] What is its recorded kcat?
stdout: 1.25

stdin: Consider the molecule shown here: NCCc1ccc(O)c(O)c1 [Dopamine] What is its recorded kcat?
stdout: 4.03

stdin: Consider the molecule shown here: NCCc1ccc(O)cc1 [Tyramine] What is its recorded kcat?
stdout: 7.78

stdin: Consider the molecule shown here: NCc1ccc(C(=O)O)cc1 [p-Carboxybenzylamine] What is its recorded kcat?
stdout: 0.0883

* * *

Some compounds, each annotated with its measured kcat (H).
SYSTEM: UniProt:Q6NSN2
METHOD DESCRIPTION: Steady-state kinetics of zMAO-catalyzed amine substrate oxidation
Type: biochemical
STATED CONDITIONS: zMAO, para-substituted benzylamine, air saturation (240 μM O2)
Your answer is read as s⁻¹, so omit the unit and give the number.

SMILES INPUT: NCc1ccc(Br)cc1
kcat (H) [s⁻¹]: 0.667
--
SMILES INPUT: NCc1ccc(Cl)cc1
kcat (H) [s⁻¹]: 0.583
--
SMILES INPUT: COc1ccc(CN)cc1
kcat (H) [s⁻¹]: 0.138
--
SMILES INPUT: NCc1ccc(C(F)(F)F)cc1
kcat (H) [s⁻¹]: 1.57
--
SMILES INPUT: Cc1ccc(CN)cc1
kcat (H) [s⁻¹]: 0.115

stdin: Consider the compound shown here: CC(C)(C)c1ccc(CN)cc1 What is its recorded kcat (H)?
stdout: 0.115

stdin: Consider the compound shown here: NCc1ccc(F)cc1 What is its recorded kcat (H)?
stdout: 0.248

* * *

SYSTEM: zebrafish monoamine oxidase (zMAO) (Danio rerio, UniProt Q6NSN2)
Sequence (Q6NSN2 whole entry): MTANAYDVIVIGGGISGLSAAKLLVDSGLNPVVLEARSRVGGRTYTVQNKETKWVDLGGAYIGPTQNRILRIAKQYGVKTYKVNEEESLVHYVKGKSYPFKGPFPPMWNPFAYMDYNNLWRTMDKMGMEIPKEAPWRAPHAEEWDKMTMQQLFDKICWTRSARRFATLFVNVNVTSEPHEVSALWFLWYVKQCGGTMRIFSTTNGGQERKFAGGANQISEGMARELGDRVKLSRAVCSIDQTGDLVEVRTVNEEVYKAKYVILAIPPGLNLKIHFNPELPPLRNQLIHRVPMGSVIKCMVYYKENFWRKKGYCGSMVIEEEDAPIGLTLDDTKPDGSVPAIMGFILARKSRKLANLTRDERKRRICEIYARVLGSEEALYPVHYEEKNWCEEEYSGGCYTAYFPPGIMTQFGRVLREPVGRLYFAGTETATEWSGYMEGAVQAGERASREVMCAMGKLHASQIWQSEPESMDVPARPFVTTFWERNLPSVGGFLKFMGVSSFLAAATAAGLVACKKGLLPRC
METHOD DESCRIPTION: Reversible inhibition of zMAO with kynuramine as substrate
Assay type: biochemical
STATED CONDITIONS: zMAO, hMAO A specific inhibitors (Table 2), kynuramine substrate
OBSERVED PROPERTY: Ki (µM)
Your answer is read as µM, so omit the unit and give the number.

MOLECULE: CS(=O)(=O)O.Cc1ccc2c(c1)c1c3n2CCNC3CCC1 (stereo not drawn) [Pirlindole Mesylate]
SYSTEM: zebrafish monoamine oxidase (zMAO) (Danio rerio, UniProt Q6NSN2)
Ki / µM: 2.4
//
MOLECULE: CS(=O)(=O)O.c1cc2c(cc1C1CCCCC1)c1c3n2CCNC3CCC1 (stereo not drawn) [Tetrindole Mesylate]
SYSTEM: zebrafish monoamine oxidase (zMAO) (Danio rerio, UniProt Q6NSN2)
Ki / µM: 34.1

stdin: Look up Ki with zebrafish monoamine oxidase (zMAO) (Danio rerio, UniProt Q6NSN2) for this molecule: C[C@H](N)Cc1ccccc1
stdout: 38

* * *

SYSTEM: UniProt:Q6NSN2
METHOD DESCRIPTION: Steady-state kinetics of zMAO-catalyzed amine substrate oxidation
Assay type: biochemical
STATED CONDITIONS: zMAO, deuterium kinetic isotope effect
The label true (1) is reserved for ^Dkcat strictly under 6 min⁻¹; false (0) covers values equal to or above it.

SMILES INPUT: Cc1ccc(CN)cc1
CATEGORY: false (0)

SMILES INPUT: NCc1ccccc1
CATEGORY: true (1)

SMILES INPUT: NCc1ccc(C(F)(F)F)cc1
CATEGORY: true (1)

stdin: Strictly below 6 min⁻¹ in ^Dkcat? CC(C)(C)c1ccc(CN)cc1
stdout: true (1)

stdin: Strictly below 6 min⁻¹ in ^Dkcat? NCc1ccc(Br)cc1
stdout: false (0)

stdin: Strictly below 6 min⁻¹ in ^Dkcat? NCc1ccc(F)cc1
stdout: false (0)

* * *

SYSTEM: zebrafish monoamine oxidase (zMAO) (Danio rerio)
METHOD DESCRIPTION: Reversible inhibition of zMAO with kynuramine as substrate
Type: biochemical
Some molecules, each annotated with its measured pKi.
Reminder that pKi means the negative base-10 logarithm of the concentration expressed in mol/L.

SMILES INPUT: Cc1nccc2c1[nH]c1ccccc12
pKi: 6.89

Next item in the queue.
stdin: Consider the molecule shown here: Cn1c(=O)c2c(nc(C=Cc3cccc(Cl)c3)n2C)n(C)c1=O What is its recorded pKi?
stdout: 5.62

* * *

Some compounds, each annotated with its measured kcat (D).
SYSTEM: zebrafish monoamine oxidase (zMAO) (Danio rerio, UniProt Q6NSN2)
METHOD DESCRIPTION: Steady-state kinetics of zMAO-catalyzed amine substrate oxidation
Type: biochemical
STATED CONDITIONS: zMAO, α,α-2[H] benzylamine analogue
Your answer is read as s⁻¹, so omit the unit and give the number.

COMPOUND: NCc1ccc(C(F)(F)F)cc1 [p-CF3]
SYSTEM: zebrafish monoamine oxidase (zMAO) (Danio rerio, UniProt Q6NSN2)
OBSERVED VALUE: 0.375

COMPOUND: CC(C)(C)c1ccc(CN)cc1 [p-t-Butyl]
SYSTEM: zebrafish monoamine oxidase (zMAO) (Danio rerio, UniProt Q6NSN2)
OBSERVED VALUE: 0.0567

COMPOUND: NCc1ccccc1 [p-H, benzylamine]
SYSTEM: zebrafish monoamine oxidase (zMAO) (Danio rerio, UniProt Q6NSN2)
OBSERVED VALUE: 0.039

COMPOUND: Cc1ccc(CN)cc1 [p-Me]
SYSTEM: zebrafish monoamine oxidase (zMAO) (Danio rerio, UniProt Q6NSN2)
OBSERVED VALUE: 0.018

COMPOUND: NCc1ccc(F)cc1 [p-F]
SYSTEM: zebrafish monoamine oxidase (zMAO) (Danio rerio, UniProt Q6NSN2)
OBSERVED VALUE: 0.0372

stdin: Consider the compound shown here: NCc1ccc(Cl)cc1 [p-CI] What is its recorded kcat (D)?
stdout: 0.0983

stdin: Consider the compound shown here: NCc1ccc(Br)cc1 [p-Br] What is its recorded kcat (D)?
stdout: 0.0813

stdin: Consider the compound shown here: COc1ccc(CN)cc1 [p-MeO] What is its recorded kcat (D)?
stdout: 0.0237

* * *

SYSTEM: zebrafish monoamine oxidase (zMAO) (Danio rerio)
OBSERVED PROPERTY: pKd
Reminder that pKd means the negative base-10 logarithm of the concentration expressed in mol/L.

stdin: Look up pKd with zebrafish monoamine oxidase (zMAO) (Danio rerio) for this molecule: NCc1ccccc1
stdout: 5.48

* * *

SYSTEM: zebrafish monoamine oxidase (zMAO) (Danio rerio)
METHOD DESCRIPTION: Steady-state kinetics of zMAO-catalyzed amine substrate oxidation
Type: biochemical
STATED CONDITIONS: read-out: Km(H); zMAO, para-substituted benzylamine
The label 1.0 is reserved for Km strictly under 90 µM; 0.0 covers values equal to or above it.

Example entries and their recorded answers appear below.
SMILES INPUT: CC(C)(C)c1ccc(CN)cc1
CATEGORY: 1.0

SMILES INPUT: COc1ccc(CN)cc1
CATEGORY: 1.0

SMILES INPUT: Cc1ccc(CN)cc1
CATEGORY: 1.0

SMILES INPUT: NCc1ccc(C(F)(F)F)cc1
CATEGORY: 0.0

SMILES INPUT: NCc1ccc(F)cc1
CATEGORY: 0.0

SMILES INPUT: NCc1ccc(Br)cc1
CATEGORY: 0.0

Continue with the compound presented below.
stdin: Strictly below 90 µM in Km? NCc1ccc(Cl)cc1
stdout: 0.0
